Just for reference, patent US20170081400A1 is where these values come from.

- test system: T1, human TL1A extracellular domain with N-terminal HIS and FLAG tag (human, UniProt O95150 72-251)
- T1 construct: the whole entry is named; also called TNFSF15
- T1 sequence: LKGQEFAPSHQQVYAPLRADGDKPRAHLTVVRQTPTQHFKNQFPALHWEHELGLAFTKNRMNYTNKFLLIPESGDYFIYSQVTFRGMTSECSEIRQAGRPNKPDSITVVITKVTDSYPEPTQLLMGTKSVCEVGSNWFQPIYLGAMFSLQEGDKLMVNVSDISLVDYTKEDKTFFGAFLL
- experiment notes: SPR Run 8, antibody on Protein A, TL1A 5 ug/mL, timepoint 44
reported metric: TL1A Binding Level (Early)

Sample records with TL1A Binding Level (Early):
[
  {
    "binder": "320-584 (antibody, human IgG1, name in Kabat numbering, V domains shown, full-length human IgG1, lambda) VH: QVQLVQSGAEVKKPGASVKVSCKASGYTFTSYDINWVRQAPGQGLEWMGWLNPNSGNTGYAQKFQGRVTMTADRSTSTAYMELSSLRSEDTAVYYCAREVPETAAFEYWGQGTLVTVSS VL: QSVLTQPPSVSGAPGQRVTISCTSSSSDIGAGSGVHWYQQLPGTAPKLLIEGYYNRPSGVPDRFSGSKSGTSASLTITGLLPEDEGDYYCQSWDGTLSALFGGGTKLTVLG",
    "TL1A Binding Level (Early)": "103 RU"
  },
  {
    "binder": "320-589 (antibody, human IgG1, name in Kabat numbering, V domains shown, full-length human IgG1, lambda) VH: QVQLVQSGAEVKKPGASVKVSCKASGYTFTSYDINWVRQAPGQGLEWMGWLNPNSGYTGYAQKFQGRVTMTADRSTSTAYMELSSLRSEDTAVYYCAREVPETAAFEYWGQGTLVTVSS VL: QSVLTQPPSVSGAPGQRVTISCTSSSSDIGAGSGVHWYQQLPGTAPKLLIEGYYNRPSGVPDRFSGSKSGTSASLTITGLLPEDEGDYYCQSYDGTLSALFGGGTKLTVLG",
    "TL1A Binding Level (Early)": "120 RU"
  }
]

Lab note: next binder to report on.
Give the measured TL1A Binding Level (Early) for 320-592 (antibody, human IgG1, name in Kabat numbering, V domains shown, full-length human IgG1, lambda) VH: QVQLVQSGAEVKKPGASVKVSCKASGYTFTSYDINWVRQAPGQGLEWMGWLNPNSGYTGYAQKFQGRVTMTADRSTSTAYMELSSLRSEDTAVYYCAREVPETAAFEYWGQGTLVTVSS VL: QSVLTQPPSVSGAPGQRVTISCTSSSSDIGAALGVHWYQQLPGTAPKLLIEGYYNRPSGVPDRFSGSKSGTSASLTITGLLPEDEGDYYCQSWDGTLSALFGGGTKLTVLG
128 RU
